B1: Zinc finger homeobox protein 3, residues 2147 to 2202; numbered along this chain, Q15911 (parent)
chain: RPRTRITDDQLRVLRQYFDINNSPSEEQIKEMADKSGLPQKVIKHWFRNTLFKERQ

- Variants of: B1
- MEASUREMENT PROTOCOL: abundance fitness (aPCA) (normalised: wild type 0, dead -1); higher = more abundant; growth selection in yeast, the domain comes from the species named
- EXPERIMENTAL PARAMETERS: Homo sapiens
# reported abundance fitness; entries follow
Lab note: jot down the number only; don't add units.

Query: I have this variant here, RPRTRITDDQLRVLRQYFDINNSPSEEQIKEMADKSGLPQKVIKHWPRNTLFKERQ [F47P] , and I need its recorded abundance fitness.
Result: -0.912

Query: I am curious: what abundance fitness value has been reported for RPRTRITDDQLRVLRQYFDINNSPKEEQIKEMADKSGLPQKVIKHWFRNTLFKERQ [S25K] ?
Result: -0.045

Query: What abundance fitness value was documented for this variant, RPRTRITDDQLRVLRQYFRINNSPSEEQIKEMADKSGLPQKVIKHWFRNTLFKERQ [D19R] ?
Result: -0.031

Query: What does the data say about its abundance fitness? Entry: RPRTRITDDKLRVLRQYFDINNSPSEEQIKEMADKSGLPQKVIKHWFRNTLFKERQ [Q10K]
Result: -0.359

Query: I am curious: what abundance fitness value has been reported for RPRTRITDDQLRVLRQYFDINNSPSEEQIKEMADKSGLPQKMIKHWFRNTLFKERQ [V42M] ?
Result: -0.218

Query: Given RPRTRITDDQLRVLRQYFDINNSPSNEQIKEMADKSGLPQKVIKHWFRNTLFKERQ [E26N] , state its recorded abundance fitness.
Result: -0.082

Query: Quick one: abundance fitness of RPRTRITDDQLRVLRQYFDINNSPSEEQIKEMADKSGLPQKVIKHWFRNTLFKERR [Q56R] ?
Result: 0.166

Query: // lookup abundance fitness for RPRTRITDDQLRVLRQYFDNNNSPSEEQIKEMADKSGLPQKVIKHWFRNTLFKERQ [I20N]
Result: 0.008

Query: Item under review: RPRTRITDDQLRVLRQYFDINNSPSEEHIKEMADKSGLPQKVIKHWFRNTLFKERQ [Q28H] . Reported abundance fitness?
Result: -0.058

Query: Fill in: abundance fitness of RPRTRITDDQLRVLRQYFDINNSHSEEQIKEMADKSGLPQKVIKHWFRNTLFKERQ [P24H] is ___
Result: -0.566
